Assay: pH of the aqueous solution
Assay type: physicochemical
Details: in solution in water
Counter-ions that a name gives are not always drawn.
TEST_READOUT: pH

Study these solved cases before continuing.
Complete the entry with pH for CN1CCN(c2c(F)cc3c(=O)c(C(=O)O)cn4c3c2SCC4)CC1 [Salt with L-tartaric acid]
4.09-4.10

Kindly indicate its recorded pH. Item: CN1CCN(c2c(F)cc3c(=O)c(C(=O)O)cn4c3c2SCC4)CC1 [Salt with malonic acid]
4.22

Check the records and state pH for CN1CCN(c2c(F)cc3c(=O)c(C(=O)O)cn4c3c2SCC4)CC1 [Salt with gluconic acid]
5.07-5.10

Continuing:
Provide pH value for the following molecule: CN1CCN(c2c(F)cc3c(=O)c(C(=O)O)cn4c3c2SCC4)CC1 [Salt with citric acid]
3.99-4.00

###

Structures can show the parent of a compound that is named as a salt.
TEST_READOUT: water solubility (µg/mL)

Solved cases below.
Please indicate water solubility recorded for CN1CCN(c2c(F)cc3c(=O)c(C(=O)O)cn4c3c2SCC4)CC1 [Salt with gluconic acid]
360000

Return value of water solubility for input CN1CCN(c2c(F)cc3c(=O)c(C(=O)O)cn4c3c2SCC4)CC1 [Salt with malonic acid] , no commentary.
3000

[a] CN1CCN(c2c(F)cc3c(=O)c(C(=O)O)cn4c3c2SCC4)CC1 [Salt with citric acid]
[b] CN1CCN(c2c(F)cc3c(=O)c(C(=O)O)cn4c3c2SCC4)CC1 [hydrochloride, reference compound]
Which of the two gives a bigger number for water solubility: a or b ? Answer by quoting the chosen item's label.
b
(b: 8000 µg/mL, a: 2700 µg/mL)
